Experimental details: CHI Log D procedure
Format: physicochemical
Condition info: pH 7.4
Observed property: CHI Log D
One number for each entry.

Worked examples, 4 molecules total:
Query: I would be grateful if you could share the reported CHI Log D for CC(=O)N1CCC[C@]12CC=CCCCC1(CCCC=CCCCOC(=O)N3CC[C@@](C(=O)N[C@@H](Cc4ccccc4Cl)C(=O)N[C@@H](Cc4csc5ccccc45)C(=O)N[C@@H](CO)C(N)=O)(C3)NC(=O)[C@H](CC(C)C)NC(=O)[C@H](Cc3ccccc3)NC(=O)[C@H](C)NC(=O)[C@H](C)NC(=O)[C@H](CCC(=O)O)NC(=O)[C@H](CC(=O)O)NC1=O)NC(=O)[C@H](CC(C)(C)C)NC(=O)[C@H](CC(=O)O)NC2=O (some centres unmarked) [I-1067] .
Reply: 2.147

Query: What do we get for CC[C@H](C)[C@@H]1NC(=O)[C@H](CC(=O)O)NC(=O)[C@]2(CC=CCCCC3(CCCC=CCCCCCC[C@@](C)(C(=O)N[C@@H](Cc4ccccc4)C(=O)N[C@@H](Cc4csc5ccccc45)C(=O)N4CCC[C@H]4C(N)=O)NC(=O)[C@H](CCC(N)=O)NC(=O)[C@H](Cc4ccccc4)NC(=O)[C@H](C)NC(=O)[C@H](C)NC(=O)[C@H](CCC(=O)O)NC(=O)[C@H](CC(=O)O)NC3=O)NC1=O)CCCN2C(C)=O (some centres unmarked) [I-637] ?
Reply: 2.554

Query: What do we get for CC(=O)N[C@@H](Cc1ccccc1)C(=O)N[C@@H](CC(=O)O)C(=O)N[C@@H](C)C(=O)N[C@]1(C)CCCCCCC=CCOC(=O)N2CC[C@@](C(=O)N[C@@H](Cc3ccccc3)C(=O)N[C@@H](Cc3c[nH]c4ccccc34)C(=O)N[C@@H](CCC(N)=O)C(N)=O)(C2)NC(=O)[C@H](CO)NC(=O)[C@H](Cc2ccccc2)NC(=O)[C@H](C)NC(=O)[C@H](C)NC(=O)[C@H](CC(=O)O)NC(=O)[C@H](CC(=O)O)NC1=O [I-163] ?
Reply: 1.29

Query: What do we get for CC[C@H](C)[C@H](NC(=O)[C@H](CC(=O)O)NC(=O)[C@H](C)NC(C)=O)C(=O)N[C@]1(C)CCN(C)C(=O)OCC=CCCCCC[C@@](C)(C(=O)N[C@@H](Cc2ccccc2)C(=O)N[C@@H](Cc2c[nH]c3ccccc23)C(=O)N[C@@H](Cc2c[nH]cn2)C(N)=O)NC(=O)[C@H](CCC(N)=O)NC(=O)[C@H](Cc2ccccc2)NC(=O)[C@H](C)NC(=O)[C@H](C)NC(=O)[C@H](CC2CCCCC2)NC(=O)[C@H](CC(=O)O)NC1=O (single isomer, unassigned) ?
Reply: 1.723

Now, please, on to the next molecule.
Query: I would be grateful if you could share the reported CHI Log D for CC[C@H](C)[C@@H]1NC(=O)[C@H](CC(=O)O)NC(=O)[C@]2(CC=CCCCC3(CCCC=CCCCCCC[C@@](C)(C(=O)N[C@@H](Cc4ccccc4)C(=O)N[C@@H](Cc4csc5ccccc45)C(=O)N4CCC[C@H]4C(N)=O)NC(=O)[C@H](CCC(N)=O)NC(=O)[C@H](Cc4ccccc4)NC(=O)[C@H](C)NC(=O)[C@H](C)NC(=O)[C@H](CCC(=O)O)NC(=O)[C@H](CC(=O)O)NC3=O)NC1=O)CCCN2C(C)=O (some centres unmarked) [I-638] .
Reply: 2.622

---

Experimental details: Solubility in PBS
Type: physicochemical
Provide the recorded Solubility for the entries that follow.
Answers are plain numbers, in µM.

Query: I would be grateful if you could share the reported Solubility for CC(=O)N1CCC[C@]12CC=CCCCC1(CCCC=CCCCOC(=O)N3CC[C@@](C(=O)N[C@@H](Cc4ccsc4)C(=O)N[C@@H](Cc4csc5ccccc45)C(=O)N[C@@H](CCC(N)=O)C(N)=O)(C3)NC(=O)[C@H](CC(N)=O)NC(=O)[C@H](Cc3ccccc3)NC(=O)[C@H](C)NC(=O)[C@H](C)NC(=O)[C@H](CC(=O)O)NC(=O)[C@H](CC(=O)O)NC1=O)NC(=O)[C@H](CCCCNC(=O)CN=[N+]=[N-])NC(=O)[C@H](CC(=O)O)NC2=O (some centres unmarked) .
Reply: 42

Now, please, on to the next compound.
Query: I would be grateful if you could share the reported Solubility for CC(=O)N1CCC[C@]12CC=CCCCC1(CCCC=CCCCCCC[C@@](C)(C(=O)N[C@@H](Cc3ccccc3)C(=O)N[C@@H](Cc3csc4ccccc34)C(=O)N[C@@H](CCC(N)=O)C(N)=O)NC(=O)[C@H](CCC(N)=O)NC(=O)[C@H](Cc3ccccc3)NC(=O)[C@H](C)NC(=O)[C@H](C)NC(=O)[C@H](CCC(=O)O)NC(=O)[C@H](Cc3nn[nH]n3)NC1=O)NC(=O)[C@H](C)NC(=O)[C@H](CC(=O)O)NC2=O (some centres unmarked) [I-415] .
Reply: 45

---

System tested: full-length beta-Catenin (Uniprot ID P35222) (Homo sapiens, UniProt P35222)
Construct: 10 nM full-length beta-Catenin (Uniprot ID P35222)
Sequence (P35222 whole entry): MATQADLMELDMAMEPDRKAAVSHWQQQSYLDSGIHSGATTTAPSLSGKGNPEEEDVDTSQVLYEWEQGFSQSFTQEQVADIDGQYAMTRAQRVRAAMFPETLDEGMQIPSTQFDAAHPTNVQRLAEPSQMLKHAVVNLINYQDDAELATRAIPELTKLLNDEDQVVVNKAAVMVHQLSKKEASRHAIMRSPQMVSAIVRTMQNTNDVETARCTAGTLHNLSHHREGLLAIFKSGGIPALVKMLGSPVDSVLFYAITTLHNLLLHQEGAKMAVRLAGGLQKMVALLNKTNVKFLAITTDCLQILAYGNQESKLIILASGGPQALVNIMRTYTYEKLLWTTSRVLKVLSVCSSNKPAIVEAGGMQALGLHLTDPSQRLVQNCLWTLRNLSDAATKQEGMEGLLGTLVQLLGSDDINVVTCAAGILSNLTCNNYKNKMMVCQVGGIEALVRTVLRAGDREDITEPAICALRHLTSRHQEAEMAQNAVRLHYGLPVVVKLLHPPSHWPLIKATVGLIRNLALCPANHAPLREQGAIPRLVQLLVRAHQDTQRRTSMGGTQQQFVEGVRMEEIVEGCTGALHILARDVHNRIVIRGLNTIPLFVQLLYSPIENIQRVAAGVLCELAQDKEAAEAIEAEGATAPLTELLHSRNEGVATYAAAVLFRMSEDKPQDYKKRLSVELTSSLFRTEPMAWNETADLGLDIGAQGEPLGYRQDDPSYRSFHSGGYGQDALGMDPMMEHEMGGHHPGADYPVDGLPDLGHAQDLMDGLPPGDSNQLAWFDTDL
Experimental details: Fluorescence polarization IC50 (beta-catenin / 5FAM-TCF4 10-53 competition)
Assay type: binding
Condition info: read-out: beta-Catenin FP IC50
Provide the recorded pIC50 for the entries that follow.
Answers are plain numbers, as −log10 of the molar value.

Hi, could you look up pIC50 for each item in my list?
1. CC(=O)N1CCC[C@]12CC=CCCCC1(CCCC=CCCCOC(=O)N3CC[C@@](C(=O)N[C@@H](Cc4ccccc4Cl)C(=O)N[C@@H](Cc4csc5ccccc45)C(=O)N[C@@H](CCC(N)=O)C(N)=O)(C3)NC(=O)[C@H](CC(N)=O)NC(=O)[C@H](Cc3ccccc3)NC(=O)[C@H](C)NC(=O)[C@H](CCCCNC(C)C)NC(=O)[C@H](CC(=O)O)NC(=O)[C@H](CC(=O)O)NC1=O)NC(=O)[C@H](CC(C)(C)C)NC(=O)[C@H](CC(=O)O)NC2=O (stereo partly drawn)
2. CC(=O)N1CCC[C@]12CC=CCCCC1(CCCC=CCCCOC(=O)N3CC[C@@](C(=O)N[C@@H](Cc4ccccc4Cl)C(=O)N[C@@H](Cc4csc5ccccc45)C(=O)N[C@@H](CCC(N)=O)C(N)=O)(C3)NC(=O)[C@H](CO)NC(=O)[C@H](Cc3ccccc3)NC(=O)[C@H](C)NC(=O)[C@H](C)NC(=O)[C@H](CC(=O)O)NC(=O)[C@H](CC(=O)O)NC1=O)NC(=O)[C@H](CC(C)(C)C)NC(=O)[C@H](CC(=O)O)NC2=O (stereo partly drawn)
3. CCN(CC(=O)O)C[C@@H]1NC(=O)[C@H](CC(=O)O)NC(=O)C2(CCCC=CCCCOC(=O)N3CC[C@@](C(=O)N[C@@H](Cc4ccsc4)C(=O)N[C@@H](Cc4csc5ccccc45)C(=O)N[C@@H](CO)C(N)=O)(C3)NC(=O)[C@H](CO)NC(=O)[C@H](Cc3ccccc3)NC(=O)[C@H](C)NC(=O)[C@H](C)NC1=O)CCCC=CC[C@]1(CCCN1C(C)=O)C(=O)N[C@@H](CC(=O)O)C(=O)N[C@@H](CC(C)(C)C)C(=O)N2 (stereo partly drawn) [I-974]
4. CC(=O)N1CCC[C@]12CC=CCCCC1(CCCC=CCCCOC(=O)N3CC[C@@](C(=O)N[C@@H](Cc4ccccc4C(F)(F)F)C(=O)N[C@@H](Cc4csc5ccccc45)C(=O)N[C@@H](CCC(N)=O)C(N)=O)(C3)NC(=O)[C@H](CC(C)C)NC(=O)[C@H](Cc3ccccc3)NC(=O)[C@H](C)NC(=O)[C@H](C)NC(=O)[C@H](Cc3cccc(C(=O)O)c3)NC(=O)[C@H](CC(=O)O)NC1=O)NC(=O)[C@H](CC(C)(C)C)NC(=O)[C@H](CC(=O)O)NC2=O (stereo partly drawn)
5. CC(=O)N1CCC[C@]12CC=CCCCC1(CCCC=CCCCCCC[C@@](C)(C(=O)N[C@@H](Cc3ccccc3Cl)C(=O)N[C@@H](Cc3csc4ccccc34)C(=O)N[C@@H](CCC(N)=O)C(N)=O)NC(=O)[C@H]([C@@H](C)O)NC(=O)[C@H](Cc3ccccc3)NC(=O)[C@H](C)NC(=O)[C@H](C)NC(=O)[C@H](CN(CC(=O)O)CC(F)(F)F)NC(=O)[C@H](CC(=O)O)NC1=O)NC(=O)[C@H](CC(C)(C)C)NC(=O)[C@H](CC(=O)O)NC2=O (stereo partly drawn)
6. CC(=O)N1CCC[C@]12CC=CCCCC1(CCCC=CCCCOC(=O)N3CC[C@@](C(=O)N[C@@H](Cc4ccccc4Cl)C(=O)N[C@@H](Cc4csc5ccccc45)C(=O)N[C@@H](CO)C(N)=O)(C3)NC(=O)[C@H](CC(C)C)NC(=O)[C@H](Cc3ccccc3)NC(=O)[C@H](C)NC(=O)[C@H](C)NC(=O)[C@H](CCC(=O)O)NC(=O)[C@H](CC(=O)O)NC1=O)NC(=O)[C@H](CC(C)(C)C)NC(=O)[C@H](CC(=O)O)NC2=O (stereo partly drawn) [I-1066]
7. COCCOCCOCCOCCOCCOCCC(=O)NCCCC[C@H](NC(=O)[C@H](CCC(N)=O)NC(=O)[C@H](Cc1csc2ccccc12)NC(=O)[C@H](Cc1ccsc1)NC(=O)[C@]12CCN(C1)C(=O)OCCCC=CCCCC1(CCCC=CC[C@]3(CCCN3C(C)=O)C(=O)N[C@@H](CC(=O)O)C(=O)N[C@@H](CC(C)(C)C)C(=O)N1)C(=O)N[C@@H](CC(=O)O)C(=O)N[C@@H](CC(=O)O)C(=O)N[C@@H](C)C(=O)N[C@@H](C)C(=O)N[C@@H](Cc1ccccc1)C(=O)N[C@@H](CC(N)=O)C(=O)N2)C(N)=O (stereo partly drawn)

Reply:
1: 8.15; 2: 8.30; 3: 5.75; 4: 8.00; 5: 7.43; 6: 6.10; 7: 8.00

Hi, could you look up pIC50 for each item in my list?
1. CC(=O)N1CCC[C@]12CC=CCCCC1(CCCC=CCCCOC(=O)N3CC[C@@](C(=O)N[C@@H](Cc4ccccc4Cl)C(=O)N[C@@H](Cc4csc5ccccc45)C(=O)N[C@@H](CO)C(N)=O)(C3)NC(=O)[C@H]([C@@H](C)O)NC(=O)[C@H](Cc3ccccc3)NC(=O)[C@H](C)NC(=O)[C@H](C)NC(=O)[C@H](CC(=O)O)NC(=O)[C@H](CC(=O)O)NC1=O)NC(=O)[C@H](CC(C)(C)C)NC(=O)[C@H](CC(=O)O)NC2=O (stereo partly drawn)
2. CC(=O)N1CCC[C@]12CC=CCCCC1(CCCC=CCCCOC(=O)N3CC[C@@](C(=O)N[C@@H](Cc4ccccc4Cl)C(=O)N[C@@H](Cc4csc5ccccc45)C(=O)N[C@@H](C(N)=O)[C@H](C)O)(C3)NC(=O)[C@H](Cc3ccccc3)NC(=O)[C@H](Cc3ccccc3)NC(=O)[C@H](C)NC(=O)[C@H](C)NC(=O)[C@H](CCC(=O)O)NC(=O)[C@H](CC(=O)O)NC1=O)NC(=O)[C@H](CC(C)(C)C)NC(=O)[C@H](CC(=O)O)NC2=O (stereo partly drawn)

Reply:
[8.30, 7.00]

FYI, the data here is from patent US20240116985A1.
